Target: T1, human CD8 alpha (CD8A) on primary human CD8+ T cells (human, UniProt P01732 22-235)
T1 construct: whole, on cells; also called hCD8A
T1 sequence (P01732 22-235): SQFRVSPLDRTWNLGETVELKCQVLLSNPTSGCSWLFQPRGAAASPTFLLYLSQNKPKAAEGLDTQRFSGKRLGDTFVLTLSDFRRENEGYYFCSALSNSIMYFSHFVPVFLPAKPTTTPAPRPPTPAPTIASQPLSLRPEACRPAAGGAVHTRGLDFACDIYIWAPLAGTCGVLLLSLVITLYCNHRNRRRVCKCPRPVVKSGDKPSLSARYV
Experiment: flow cytometry, human CD8+ T cells, 2 uM FN3
Protocol: Binding of the 190 ELISA hits to human and cynomologous monkey primary CD8 T cells was assessed by flow cytometry. The FN3 domain molecules were diluted to 2 μM and 0.2 μM in PBS and incubated with human or cynomologous monkey CD8+ T cells in 96-well format. […] Cells were gating on live cells and median fluorescence intensity of the bound Centyrins (PE channel) was calculated using Cytobank software.
Provide the reported Human T-cell Binding 2 uM (MFI) of each item.
Give bare numbers, in MFI.

The examples below pair each entry with its known result.
P282BR9P1357_H3 (designed binder, FN3 domain) LPAPKNLVVSRVTEDSARLSWKKREYQDPGFDSFLIQYQESEKVGEAIVLTVPGSERSYDLTGLKPGTEYTVSIYGVDVKWEGNRPVASNPLSAIFTT: 11100
P282DR9P1359_F3 (designed binder, FN3 domain) LPAPKNLVVSRVTEDSARLSWTAPDAAFDSFYITYPEWPVQGEAIVLTVPGSERSYDLTGLKPGTEYWVIIYGVKGGTESEPLSAIFTT: 6340
P282DR9P1359_G4 (designed binder, FN3 domain) LPAPKNLVVSRVTEDSARLSWTAPDAAFDSFEIAYPEWPPPGEAIVLTVPGSERSYDLTGLKPGPEYFVVIQGVKGGDPSFPLSAIFTTGGNHHHHH: 26600

query: What does the data say about its Human T-cell Binding 2 uM (MFI)? Entry: P283AR9P1362_G11 (designed binder, FN3 domain) LPAPKNLVVSRVTEDSARLSWRKEATSFDSFLIQYQESEKVGEAIVLTVPGSERSYDLTGLKPGTEYTVSIYGVDVKYDIDSRPISSNPLSAIFTT
result: 12700

From: patent US20210032312A1
